protocol-description: LTEA_HepaRG_LDH_cytotoxicity: Cytotoxicity Assessment in the Life Technologies and Expression Analysis (LTEA) Assay (AID 2283563)
The source made the active and inactive calls. The calls were made as follows: active = hit-call score of the fitted dose curve at least 0.9, where 1 is the maximum; inconclusive = response in the unintended direction; inactive = score below 0.9.
Mark one answer only. Choices: YES (active), NO (inactive)

Example entries and their recorded answers appear below.
1. CC[C@H]1CC[C@H](NCc2cc3c(cc2OC)[C@H]2C[C@H]2C(=O)N3C)[C@H](c2ccccc2)N1 : NO
2. CCCCCCCCCCCCc1ccccc1 : NO

Could you check what this test reported for O=C(O)c1cccc(Oc2ccccc2)c1 ?
NO

Could you check what this test reported for COc1ccc(/C=C/S(=O)(=O)NC(=O)c2ccc(C)cc2Cl)cc1 ?
NO

Could you check what this test reported for O=C(O)c1cc(N=Nc2ccc(S(=O)(=O)Nc3ccccn3)cc2)ccc1O ?
NO

Recorded values, source PubChem BioAssay (EPA / NIEHS).
